Listed here: items and their measured MIC.
- System: MRSA (ATCC 33591)
- PROTOCOL SUMMARY: Broth microdilution MIC, MRSA ATCC 33591
- Format: cell-based
- CONDITION NOTES: Staphylococcus aureus; Table 1, Compounds 1-15; preliminary data, modified non-standard conditions (pH 9), solubility-limited

Worked examples follow.
CCC1C(c2ccc(C(F)(F)F)cc2)=C(O)C(=O)N1c1cccnc1 (stereo not drawn) [Compound 6] ... > 128 µg/mL
CCC1C(c2ccc(C(F)(F)F)cc2)=C(O)C(=O)N1c1ccccc1 (stereo not drawn) [Compound 1] ... 16 µg/mL
CC(C)C1C(c2ccc(C(F)(F)F)cc2)=C(O)C(=O)N1c1ccccc1 (stereo not drawn) [Compound 10] ... > 128 µg/mL
CCC1C(c2ccc(C(F)(F)F)cc2)=C(O)C(=O)N1CCC(C)C (stereo not drawn) [Compound 14] ... > 128 µg/mL

Query: Report MIC for CCC1C(c2ccc(C(F)(F)F)cc2)=C(O)C(=O)N1CCc1ccccc1 (stereo not drawn) [Compound 8] please.
Reply: > 128 µg/mL

Query: Tell me the measured MIC of CCC1C(c2ccc(C(F)(F)F)cc2)=C(O)C(=O)N1c1ccc(OC)c(OC)c1 (stereo not drawn) [Compound 5] , please.
Reply: > 128 µg/mL

Query: What measured MIC goes with CCCCCN1C(=O)C(O)=C(c2ccc(C(F)(F)F)cc2)C1CC (stereo not drawn) [Compound 11] ?
Reply: 16 µg/mL

Query: # query: MIC of entry CC1C(c2ccc(C(F)(F)F)cc2)=C(O)C(=O)N1c1ccccc1 (stereo not drawn) [Compound 2]
Reply: 32 µg/mL

Query: Record request: MIC value, item O=C1C(O)=C(c2ccc(C(F)(F)F)cc2)CN1c1ccccc1 [Compound 9]
Reply: > 128 µg/mL
